- Tested on: β-catenin/Tcf-4
- EXPERIMENT_DESCRIPTION: cells
- Format: cell-based
- CONDITIONS: Homo sapiens, SW480, 24 h, Tcf 33.13 cells derived from SW480; 24 hours of incubation with compound; ratio Firefly/Renilla luciferase
READOUT_LABEL: IC50 (nM)

In: What value of measured IC50 is listed for Cc1ccc2c(N[C@@H](C)c3ccc(NC(=O)C4CCN(Cc5ccc(F)c(F)c5)CC4)cc3)nc(N(C)C)nc2c1 ?
Out: 203

In: What value of measured IC50 is listed for Cc1ccc2c(NCc3ccc(NC(=O)c4ccc(F)cc4)cc3)nc(N3CCCCC3CCO)nc2c1 (stereo not shown) ?
Out: 781

In: What value of measured IC50 is listed for CCN1CCN(c2nc(NCc3ccc(NC(=O)c4ccc(F)cc4)cc3)c3cc(C)ccc3n2)CC1 ?
Out: 1600

In: What value of measured IC50 is listed for Cc1ccc2c(NCc3ccc(NC(=O)Nc4ccc(Br)cc4)cc3)nc(N(C)C)nc2c1 ?
Out: 924

In: What value of measured IC50 is listed for O=C(Nc1ccc(CNc2nc(NC3CCCC3)nc3ccccc23)cc1)c1ccc(F)cc1 ?
Out: 795

I. CN(C)c1nc(NCc2ccc(NC(=O)c3ccc(F)cc3)cc2)c2cc(I)ccc2n1
II. CNc1nc(NCc2ccc(NC(=O)c3ccc(Cl)cc3)cc2)c2cc(OC)ccc2n1
In: Given I and given II , which shows the smaller recorded IC50? State the label of the item chosen.
Out: I
